Entry source: paper PMC10090446

# procedure summary: Steady-state plasma concentrations of polymyxin B (total of B1, B2, B1-Ile) by LC-MS/MS
# Format: in vivo
# condition parameters: human, iv, 50 mg, patient ID 15, TIME 277, DOSE 50 every 12 from 133 (DUR 1, ADDL 11), WT 50, CCR 35.85, ALB 29.5, APACHE 39, single measurement, read-out: OUT (observed polymyxin B plasma concentration)
Positions of bridges follow the written chain, without caps; N, C: chain ends. Non-standard residues stand in square brackets, D forms with d. Residues, ends and D or L forms follow the SMILES beside them. *: point of attachment. X1 = CC[C@H](C)CCCCC(=O)*; Dab = NCC[C@H](N)C(=O)O
metric: level at 277 h

Problem: Form field: reported level at 277 h of CC[C@H](C)CCCCC(=O)N[C@@H](CCN)C(=O)N[C@H](C(=O)N[C@@H](CCN)C(=O)N[C@H]1CCNC(=O)[C@H]([C@@H](C)O)NC(=O)[C@H](CCN)NC(=O)[C@H](CCN)NC(=O)[C@H](CC(C)C)NC(=O)[C@@H](Cc2ccccc2)NC(=O)[C@H](CCN)NC1=O)[C@@H](C)O [polymyxin B] (X1-[Dab]T[Dab][Dab][Dab][dF]L[Dab][Dab]T; lactam 4-C)
Solution: 2420 ng/mL
